- target or test system: human Claudin-6 (CLDN6) (human) (UniProt P56747)
- protocol summary: FACS titration of labelled mAb on OVCA429 cells (endogenous CLDN6+)
measured metric: pEC50
Lab note — pEC50 values are minus log10 of concentrations in M.

Asked: Need pEC50, item AB11 (antibody, V domains shown, full-length IgG (ExpiCHO)) VH: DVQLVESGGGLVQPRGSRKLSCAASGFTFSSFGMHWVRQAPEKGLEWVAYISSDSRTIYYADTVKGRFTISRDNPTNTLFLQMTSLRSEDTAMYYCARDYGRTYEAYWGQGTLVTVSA VL: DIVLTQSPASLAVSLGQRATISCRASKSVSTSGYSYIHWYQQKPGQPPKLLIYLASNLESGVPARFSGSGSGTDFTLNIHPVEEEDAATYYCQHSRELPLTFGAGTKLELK
Given back: 6.08

Asked: Need pEC50, item AB9 (antibody, V domains shown) VH: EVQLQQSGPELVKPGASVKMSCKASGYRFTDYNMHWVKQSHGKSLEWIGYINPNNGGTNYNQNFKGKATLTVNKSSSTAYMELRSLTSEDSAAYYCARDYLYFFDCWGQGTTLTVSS VL: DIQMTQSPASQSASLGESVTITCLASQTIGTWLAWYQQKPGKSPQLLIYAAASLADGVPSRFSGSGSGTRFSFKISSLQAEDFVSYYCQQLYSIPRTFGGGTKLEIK
Given back: 5.93

Asked: Need pEC50, item AB4 (antibody, V domains shown, full-length IgG (ExpiCHO)) VH: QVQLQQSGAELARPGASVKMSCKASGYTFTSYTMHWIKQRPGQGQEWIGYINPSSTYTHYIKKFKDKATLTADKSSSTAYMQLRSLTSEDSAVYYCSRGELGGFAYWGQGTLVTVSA VL: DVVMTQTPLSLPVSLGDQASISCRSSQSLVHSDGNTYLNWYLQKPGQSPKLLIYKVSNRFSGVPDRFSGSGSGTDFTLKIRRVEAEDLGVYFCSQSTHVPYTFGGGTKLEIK
Given back: 6.77
